Listing: pIC50 of selected compounds
# System tested: WT-TTR (Homo sapiens, UniProt P02766)
# Construct: made in house
# Experiment: Stagnant acid-mediated TTR aggregation (fibril formation) assay, turbidity at 340 nm
# Type: biochemical
# Measurement setup: Table 3, WT-TTR 7.2 μM; read-out: IC50
// pIC50 here means minus log10 of the molar concentration (mol/L)

Compound	System tested	pIC50
COc1cc(CCl)ccc1Oc1ccccc1 [Compound 8, 3-Methoxy-4-phenoxybenzyl chloride]	WT-TTR (Homo sapiens, UniProt P02766)	5.71
O=C(O)c1ccc(Oc2ccc(Cl)cc2Cl)c(O)c1 [Compound 7]	WT-TTR (Homo sapiens, UniProt P02766)	5.59
COc1cc(CCl)ccc1Oc1ccc(Cl)cc1Cl [Compound 5]	WT-TTR (Homo sapiens, UniProt P02766)	5.50
OCc1ccc(Oc2ccc(Cl)cc2Cl)c(O)c1 [Compound 4]	WT-TTR (Homo sapiens, UniProt P02766)	5.87

(Q) // lookup pIC50 for O=Cc1ccc(Oc2ccc([N+](=O)[O-])cc2[N+](=O)[O-])c(O)c1 [Compound 17]
(A) 4.26

Provenance of the data: patent US20100190832A1
